measuredOn: Gal(b1-3)GalNAc(b1-4)[Neu5Ac(a2-3)]Gal(b1-4)Glc
protocolDescription: glycan array binding signal (z-score within array); higher = stronger binding
conditionInfo: glycan notation: IUPAC condensed, linker removed
The entries come from a sample that favours the strongest signals as a whole.
experimentalEndpoint: glycan array binding signal (z-score)

- binder: "SIGNR8 (Mus musculus) (protein) MAGEPEFHQSKNHEEEVTSGEQGFAEHDPEGLICSSKSLQGHLTQVPWLLLLLISLGLFLLMLATLVQVSRIRAYSQGQTQDQQGSSSLDKVAVPREQTHSGLEQIQQIQQQLTQFNASLAGLCRPCPWDWELFQGSCYLFSRTLGSWETSASSCEDLGAHLVIVNSVSEQRFMKYWNVRKNQRSWIGLSDHIHEGSWQWVDGSALKFSFWKEGEPNNDGDEDCVELFMDDWNDNKCTEQNFWVCEQPSAPCPHH"
  experimentalEndpoint: "glycan array binding signal (z-score)"
  readoutValue: -0.329
- binder: "HPA (Helix pomatia), Q2F1K8 (protein) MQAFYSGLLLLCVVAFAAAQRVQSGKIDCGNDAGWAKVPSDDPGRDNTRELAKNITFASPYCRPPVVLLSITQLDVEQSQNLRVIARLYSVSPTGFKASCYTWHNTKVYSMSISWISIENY"
  experimentalEndpoint: "glycan array binding signal (z-score)"
  readoutValue: -0.291
- binder: "TbCVNHOb (Tuber borchii) (protein) MSFYASSEDVRTIEEGGRTWLVGRARRADGSWQDIKLDLDNIIGNRDGHLTWGEQNFTQSASDIRFNFEGGSNVPVLRAKLRNAAGGEQESDLNLGERLTNNNGDLVFN"
  experimentalEndpoint: "glycan array binding signal (z-score)"
  readoutValue: -0.245

Identify the reported glycan array binding signal (z-score) for the following entry. GS13455A-bfa-343-25-343 (Bacteroides fragilis) (protein) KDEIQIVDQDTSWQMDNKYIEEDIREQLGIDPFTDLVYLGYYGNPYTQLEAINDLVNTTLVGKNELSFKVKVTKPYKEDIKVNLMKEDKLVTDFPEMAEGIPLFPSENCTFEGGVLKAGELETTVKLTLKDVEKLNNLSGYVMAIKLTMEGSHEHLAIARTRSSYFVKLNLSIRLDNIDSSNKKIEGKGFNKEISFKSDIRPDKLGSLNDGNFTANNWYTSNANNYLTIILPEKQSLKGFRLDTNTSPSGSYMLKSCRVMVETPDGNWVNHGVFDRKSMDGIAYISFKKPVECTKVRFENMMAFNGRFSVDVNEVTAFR
-0.051
